# MEASUREMENT DESCRIPTION: NCI Yeast Anticancer Drug Screen. Data for the wt1 strain (AID 149)
# CONDITION NOTES: S. cerevisiae wt1 strain (SPY 50644) growth inhibition; at 100.0 µM; stronger effect = higher value
Compounds without any hit were thinned out: in the full panel of roughly 79,000, 15% have a hit.
Entries get a class label from measured growth inhibition. See ranges: bottom range: < 20%; center range: ≥ 20% and < 90%; top range: ≥ 90%

q: Please report the category associated with O=[N+]([O-])C(=C(NCc1ccccc1)NCc1ccccc1)C(Cl)=C(Cl)Cl , nothing else.
a: center range

q: Please report the category associated with CN(C)CCC(=O)c1c[nH]c2ccccc12 , nothing else.
a: bottom range

q: Please report the category associated with CN(C)c1ccc(/C=C/c2ccnc3ccc4ccccc4c23)cc1 , nothing else.
a: center range

q: Please report the category associated with O=C(O)[C@H]1[C@@H](C2CCCCC2)O[C@@H](C2CCCCC2)O[C@H]1C(F)(F)F , nothing else.
a: bottom range

q: Please report the category associated with COc1ccc(/C=C2\S/C(=N/Nc3nc(-c4ccccc4)cs3)NC2=O)cc1OC , nothing else.
a: top range

q: Please report the category associated with Cc1nc2ccccc2c(=O)n1NC(=O)c1ccc(CS)cc1 , nothing else.
a: top range

q: Please report the category associated with CCC1SC(=S)N(c2ccc(Cl)cc2)C1=O (stereo not drawn) , nothing else.
a: center range

q: Please report the category associated with CCN(CC)c1cccc(Nc2nc3ccccc3s2)c1 , nothing else.
a: bottom range

q: Please report the category associated with C=Cc1c(C)c(O)cc2c1-c1ccc(O)c(C)c1CC2 , nothing else.
a: top range

q: Please report the category associated with CCCCCC/C(C)=N/Nc1ccc([N+](=O)[O-])cc1[N+](=O)[O-] , nothing else.
a: bottom range

q: Please report the category associated with CC[C@]1(O)C[C@H]2CN(CCc3c([nH]c4ccccc34)[C@@](C(=O)OC)(c3cc4c(cc3OC)N(C)[C@H]3[C@@](O)(C(=O)OC)[C@H](OC(C)=O)[C@]5(CC)C=CCN6CC[C@]43[C@@H]65)C2)C1 , nothing else.
a: bottom range
